# TESTED SYSTEM: full-length ATR (Homo sapiens (Human), UniProt Q13535)
# Sequence (Q13535 whole entry): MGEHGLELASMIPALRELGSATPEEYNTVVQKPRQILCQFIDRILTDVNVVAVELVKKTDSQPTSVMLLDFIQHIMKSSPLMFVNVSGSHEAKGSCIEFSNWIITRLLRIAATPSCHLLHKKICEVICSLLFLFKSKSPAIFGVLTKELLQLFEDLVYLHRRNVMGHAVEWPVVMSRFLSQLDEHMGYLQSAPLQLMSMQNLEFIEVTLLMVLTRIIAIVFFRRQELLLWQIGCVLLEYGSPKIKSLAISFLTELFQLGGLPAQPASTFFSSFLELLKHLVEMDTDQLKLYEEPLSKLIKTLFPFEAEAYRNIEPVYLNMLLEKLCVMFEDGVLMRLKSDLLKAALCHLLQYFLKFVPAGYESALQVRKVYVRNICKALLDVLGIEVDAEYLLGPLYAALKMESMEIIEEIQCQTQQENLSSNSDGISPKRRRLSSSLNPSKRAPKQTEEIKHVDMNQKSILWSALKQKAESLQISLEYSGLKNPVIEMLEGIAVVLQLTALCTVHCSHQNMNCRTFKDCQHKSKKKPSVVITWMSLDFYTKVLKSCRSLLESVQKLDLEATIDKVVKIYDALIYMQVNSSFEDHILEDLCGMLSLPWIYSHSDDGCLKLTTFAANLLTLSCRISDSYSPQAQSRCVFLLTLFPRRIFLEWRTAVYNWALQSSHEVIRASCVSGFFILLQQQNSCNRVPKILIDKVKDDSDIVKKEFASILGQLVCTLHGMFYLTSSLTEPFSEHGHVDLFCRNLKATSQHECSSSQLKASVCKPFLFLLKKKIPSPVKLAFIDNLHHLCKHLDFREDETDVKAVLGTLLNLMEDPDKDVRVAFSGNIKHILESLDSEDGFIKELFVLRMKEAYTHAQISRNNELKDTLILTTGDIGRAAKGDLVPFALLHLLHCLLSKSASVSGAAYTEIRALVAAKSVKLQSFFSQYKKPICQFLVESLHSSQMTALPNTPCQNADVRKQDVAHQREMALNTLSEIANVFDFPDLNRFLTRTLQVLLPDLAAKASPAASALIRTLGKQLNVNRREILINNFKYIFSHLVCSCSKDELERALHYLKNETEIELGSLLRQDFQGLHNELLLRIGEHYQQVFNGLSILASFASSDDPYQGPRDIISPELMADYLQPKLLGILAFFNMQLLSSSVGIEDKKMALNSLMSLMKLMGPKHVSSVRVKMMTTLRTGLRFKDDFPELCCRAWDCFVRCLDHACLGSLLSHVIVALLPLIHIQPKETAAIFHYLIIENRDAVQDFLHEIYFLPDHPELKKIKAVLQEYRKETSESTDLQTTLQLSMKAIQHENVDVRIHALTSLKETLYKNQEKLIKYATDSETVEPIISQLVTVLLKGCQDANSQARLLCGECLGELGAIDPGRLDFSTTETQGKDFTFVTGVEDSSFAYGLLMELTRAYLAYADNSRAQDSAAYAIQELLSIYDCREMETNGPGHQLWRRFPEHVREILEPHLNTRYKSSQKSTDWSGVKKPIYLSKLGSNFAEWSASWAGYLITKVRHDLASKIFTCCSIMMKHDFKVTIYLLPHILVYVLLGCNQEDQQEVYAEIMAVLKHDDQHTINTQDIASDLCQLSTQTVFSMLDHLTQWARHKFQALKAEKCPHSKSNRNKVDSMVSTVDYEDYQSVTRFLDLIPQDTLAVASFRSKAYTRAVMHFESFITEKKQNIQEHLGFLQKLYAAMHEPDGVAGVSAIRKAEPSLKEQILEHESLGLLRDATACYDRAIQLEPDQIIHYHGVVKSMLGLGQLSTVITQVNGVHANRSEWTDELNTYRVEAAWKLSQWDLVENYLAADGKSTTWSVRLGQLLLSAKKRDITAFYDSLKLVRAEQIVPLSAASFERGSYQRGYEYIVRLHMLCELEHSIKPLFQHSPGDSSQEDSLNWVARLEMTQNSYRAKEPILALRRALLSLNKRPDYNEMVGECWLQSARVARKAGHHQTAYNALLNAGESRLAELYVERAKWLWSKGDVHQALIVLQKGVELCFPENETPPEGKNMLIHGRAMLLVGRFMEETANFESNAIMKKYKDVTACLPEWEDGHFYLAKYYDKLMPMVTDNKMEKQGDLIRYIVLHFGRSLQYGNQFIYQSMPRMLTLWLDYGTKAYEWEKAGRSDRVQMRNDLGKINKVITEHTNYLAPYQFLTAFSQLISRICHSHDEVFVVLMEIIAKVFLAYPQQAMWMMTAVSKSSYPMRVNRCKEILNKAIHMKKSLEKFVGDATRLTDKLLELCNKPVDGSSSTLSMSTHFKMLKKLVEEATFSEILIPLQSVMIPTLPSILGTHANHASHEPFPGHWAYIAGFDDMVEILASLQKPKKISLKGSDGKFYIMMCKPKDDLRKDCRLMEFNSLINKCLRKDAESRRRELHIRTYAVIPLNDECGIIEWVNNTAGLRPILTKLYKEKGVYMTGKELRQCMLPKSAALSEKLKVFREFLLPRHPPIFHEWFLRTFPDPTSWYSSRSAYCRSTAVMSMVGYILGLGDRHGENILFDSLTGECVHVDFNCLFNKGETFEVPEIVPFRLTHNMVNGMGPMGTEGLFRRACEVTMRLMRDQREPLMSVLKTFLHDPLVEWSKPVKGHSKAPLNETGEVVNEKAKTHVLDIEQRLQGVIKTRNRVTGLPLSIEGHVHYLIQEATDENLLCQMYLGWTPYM
# EXPERIMENT: ATR Inhibition Assay (radioactive-phosphate incorporation)
# Format: biochemical
# MEASUREMENT SETUP: read-out: ATR Ki
pKi: −log10 of the molar value.
Each entry below lists one item and its recorded pKi value.

{"SMILES CODE": "COc1ccccc1NC(=O)c1nc(-c2cccs2)cnc1N", "TESTED SYSTEM": "full-length ATR (Homo sapiens (Human), UniProt Q13535)", "pKi": "7.00 to 8.00"}
{"SMILES CODE": "N#Cc1ncccc1-c1cnc(N)c(-c2nnc(-c3ccccc3)o2)n1", "TESTED SYSTEM": "full-length ATR (Homo sapiens (Human), UniProt Q13535)", "pKi": "≥ 8.00"}
{"SMILES CODE": "CC(C)(C)CC(=O)N1CCCN(C(=O)c2ccc(-c3cnc(N)c(-c4nnc(-c5ccccc5)o4)n3)cc2)CC1", "TESTED SYSTEM": "full-length ATR (Homo sapiens (Human), UniProt Q13535)", "pKi": "≥ 8.00"}
{"SMILES CODE": "Cc1cccc(-c2cnc(N)c(-c3nnc(-c4ccccc4)o3)n2)c1", "TESTED SYSTEM": "full-length ATR (Homo sapiens (Human), UniProt Q13535)", "pKi": "5.30 to 7.00"}

*Q* Dear colleague, I am looking for the recorded pKi of the following compound: CC(C)S(=O)(=O)c1ccc(-c2cnc(N)c(-c3nnc(-c4ccc(CN)cc4)o3)n2)cc1
*A* ≥ 8.00

The measurements presented in this section are drawn from patent US10479784B2.
